Each item that follows carries a reported MC4R selectivity vs MC1R.
# test-target: human MC4R receptor (human, UniProt P32245 1-332)
# Sequence (P32245 whole entry): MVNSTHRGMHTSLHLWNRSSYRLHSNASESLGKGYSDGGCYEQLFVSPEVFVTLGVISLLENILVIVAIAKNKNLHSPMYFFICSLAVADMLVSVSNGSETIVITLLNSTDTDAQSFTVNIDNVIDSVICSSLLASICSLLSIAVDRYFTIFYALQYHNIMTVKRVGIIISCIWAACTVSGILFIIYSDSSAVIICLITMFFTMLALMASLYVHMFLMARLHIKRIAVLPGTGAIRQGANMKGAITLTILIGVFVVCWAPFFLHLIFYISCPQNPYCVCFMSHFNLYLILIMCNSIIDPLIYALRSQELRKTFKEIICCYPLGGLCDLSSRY
# assay-notes: cell-based or functional assay
Starred links: 1 amine or outer side, 2 acyl side, 3 side chain; linkers in the order of their positions; H or OH if unused. Positions of bridges follow the written chain, without caps; N, C: chain ends. Non-standard residues stand in square brackets, D forms with d. Primed or numbered codes have the meaning given here. dTyr(4-OMe)″ = O-methyl-D-tyrosine, COc1ccc(C[C@@H](N[*:1])C(=O)[*:2])cc1; dPhe(4-Br) = N[C@H](Cc1ccc(Br)cc1)C(=O)O; Cit = NC(=O)NCCC[C@H](N)C(=O)O; Aib = CC(C)(N)C(=O)O
measurement-kind: MC4R selectivity vs MC1R

binder="Ac-RC[dA]R[dPhe(4-Br)]R[dA]C-NH2 (disulfide 2-8; SMILES CC(=O)N[C@@H](CCCNC(=N)N)C(=O)N[C@H]1CSSC[C@@H](C(N)=O)NC(=O)[C@@H](C)NC(=O)[C@H](CCCNC(=N)N)NC(=O)[C@@H](Cc2ccc(Br)cc2)NC(=O)[C@H](CCCNC(=N)N)NC(=O)[C@@H](C)NC1=O) [CTX-1260]" result_modifier== assay_value=0.01
binder="Ac-RC[dA]R[dPhe(4-Br)]R[dW]CR[dF]-NH2 (disulfide 2-8; SMILES CC(=O)N[C@@H](CCCNC(=N)N)C(=O)N[C@H]1CSSC[C@@H](C(=O)N[C@@H](CCCNC(=N)N)C(=O)N[C@H](Cc2ccccc2)C(N)=O)NC(=O)[C@@H](Cc2c[nH]c3ccccc23)NC(=O)[C@H](CCCNC(=N)N)NC(=O)[C@@H](Cc2ccc(Br)cc2)NC(=O)[C@H](CCCNC(=N)N)NC(=O)[C@@H](C)NC1=O) [CTX-1222]" result_modifier== assay_value=0.1
binder="Ac-RC[Aib][Cit][dTyr(4-OMe)″]R[dW]C-NH2 (disulfide 2-8) [CTX-1600]" result_modifier=> assay_value=70
binder="Ac-RC[dA]R[dPhe(4-Br)]R[dW]CKP-NH2 (disulfide 2-8; SMILES CC(=O)N[C@@H](CCCNC(=N)N)C(=O)N[C@H]1CSSC[C@@H](C(=O)N[C@@H](CCCCN)C(=O)N2CCC[C@H]2C(N)=O)NC(=O)[C@@H](Cc2c[nH]c3ccccc23)NC(=O)[C@H](CCCNC(=N)N)NC(=O)[C@@H](Cc2ccc(Br)cc2)NC(=O)[C@H](CCCNC(=N)N)NC(=O)[C@@H](C)NC1=O) [CTX-1217]" result_modifier== assay_value=1.12

Recorded values, source patent US20240391954A1.
